- subject.of.test: pooled human IgG (human IgG1,2,3 and 4)
observation.type: Enzyme Activity Endpoint Assay (purified): Fc

| protein | assay.result |
| --- | --- |
| PRT-318 (protein) MTITSVWTKGVTPPTPEDFRYNNEDVLHAPYVANQGWYDITKTFDGKDNLLCGAATAGNMLHWWFDQNKEEIERYLKKHPEKQKIIFNNQEWFDVKAAIDTKDSQTNSKLFDYFRDKAFPNLSARQLGVMPDLVLDMFINGYYLNLGKTQSTDVNRPYQDKDKRGGIFDAVFTRGDQTTLLTARHDLKNKGLNEISDLIKQELTEGKALALSHTYANVRINHVINLWGADFDAEGNLIAIYVTDSDANASIGMKKYFVGVNANGKVAISAKKIEGDNIGAQVLGLFTLSLGQDIWQKLS | 365 ng/µL |

The reported measurements were obtained from patent US20250027068.
